Where do the numbers come from? From ChEMBL document CHEMBL3352618.

Experiment: Clearance in male ICR mouse at 10 mg/kg, po
Assay type: ADME, organism-based
Design: dose 10 mg/kg, route oral
Conditions: in vivo
measuredMetric: CL/F (mL/min/kg)
Could you give me the number in mL/min/kg? Just the number is fine.

Problem: I have this compound here, CN1CCN(C(=O)c2cnc(O)nc2Oc2cc(Cl)ccc2Cl)c2ccccc21 , and I need its recorded CL/F.
Solution: 369

###

Assay: Oral bioavailability in male ICR mouse at 10 mg/kg
Assay type: ADME, organism-based
Conditions: in vivo
measuredMetric: bioavailability (%)
Could you give me the number in %? Just the number is fine.

Problem: I have this compound here, CN1CCN(C(=O)c2cnc(O)nc2Oc2cc(Cl)ccc2Cl)c2ccccc21 , and I need its recorded bioavailability.
Solution: 13.9

###

Assay: Half life in male ICR mouse at 10 mg/kg, po
Format: ADME, organism-based
Parameters: dose 10 mg/kg, route oral
Details: in vivo
measuredMetric: half-life (h)
Could you give me the number in h? Just the number is fine.

Problem: I have this compound here, CN1CCN(C(=O)c2cnc(O)nc2Oc2cc(Cl)ccc2Cl)c2ccccc21 , and I need its recorded half-life.
Solution: 2.83

###

Assay: AUC (0 to 7 hrs) in male ICR mouse at 10 mg/kg, po
Assay type: ADME, organism-based
Set-up: time < 7 hr, dose 10 mg/kg, route oral
Settings: plasma
measuredMetric: AUC(0-t) at 7 h (ng·h/mL)
Could you give me the number in ng·h/mL? Just the number is fine.

Problem: I have this molecule here, CN1CCN(C(=O)c2cnc(O)nc2Oc2cc(Cl)ccc2Cl)c2ccccc21 , and I need its recorded AUC(0-t) at 7 h.
Solution: 397
